Measurement target: HIV-1 Env of Q769.d22 (HIV-1)
Assay text: cell-based or functional assay

Binder	neutralization IC50
CAP256-VRC26.06 (antibody, V domains shown) VH: EVQLIESGGGVVQPGRSLRLSCGASGFSFNNYGMHWVRQAPGKGLEWVAGISFAGIKKYYGTSVKGRFTISRDNSKNNFYLQMNSLRVEDTALYYCARDLRELECEEWTLYNYYDFGSRGPCVDPRGVAGSFDVWGQGTMVTVSS VL: QSVLTQPPSVSAAPGQKVTISCSGSTSKIGQNSVSWYQQLPGTAPKLLIYENDRRPSGTPDRFSGSKSGTSATLAITGLQTGDEAEYYCETWDGSGGVFGTGTKVTVLG	> 50 µg/mL
CAP256-VRC26.04 (antibody, V domains shown) VH: EVQLVESGGGVVQPGKSLRLSCAASQFSFNRYGMHWVRQAPGKGLEWVAAISYDGTDKYHADKVWGRFTISRDNSKNTLYLQMNSLRAEDTALYYCAKDLREDECEEWWSDYYDFGKQLPCRKSRGVAGIFDKWGQGTMVIVSS VL: QPVLTQPPSVSAAPGQKVTISCSGSSSNIGNNFVSWYQQRPGTAPSLLIYETNKRPSGIPDRFSGSKSATSATLAITGLQTGDEADYYCATWAASLTSARVFGTGTKVIVSG	> 50 µg/mL
